Tested on: SF-539 CNS
Test Description: NCI-60 one-dose screen, 48 h
Test Settings: 10 µM unless noted
This is part of a sample that, as a whole, favours compounds with a hit. Of some 83,000 tested, about 20% had one in any assay. The source made the active and inactive calls. Rule for the calls: active = growth percent below 10; inactive = the rest.
Tick one outcome: Yes = active, No = inactive

Example entries and their recorded answers appear below.
[
  {
    "Record Smiles": "OC1CCN(CCCOc2c3ccccc3nc3c2oc2ccccc23)CC1",
    "Group Label": "Yes"
  },
  {
    "Record Smiles": "OC1CCN(CCCOc2c3ccc(Cl)cc3nc3c2oc2ccccc23)CC1",
    "Group Label": "Yes"
  }
]

Test call for this compound, please: `CCC/C=C/C=C/C(=O)N[C@@H](Cc1cc(F)cc(F)c1)C(=O)N[C@@H]1C(=O)N2CCC[C@H]2C(=O)N2CCCC[C@H]2C(=O)N[C@@H](C)C(=O)N2C[C@H](C)C[C@H]2C(=O)O[C@H]1C` No

Test call for this compound, please: `COc1ccc(C(=O)c2cc(C(=O)/C=C/c3c(Cl)cccc3Cl)c3cc(C)ccn23)cc1` No

Test call for this compound, please: `COc1cccc(OC)c1-c1nnn(C)c1C(=S)N1CCN(c2ccc([N+](=O)[O-])cc2Cl)CC1` No

Test call for this compound, please: `CC(=O)Oc1ccccc1C(=O)Nc1cc(C(C)C)ccc1C` No

Test call for this compound, please: `COc1ccc(C(=O)/C=C/c2ccc(Oc3nc(NCCO)nc(N4CCOCC4)n3)c(OC)c2)cc1` No

Test call for this compound, please: `COc1ccc(-n2c(SCC(=O)Nc3ccc(-c4nc5ccccc5[nH]4)cc3)nc3ccccc3c2=O)cc1` Yes

Test call for this compound, please: `CN(C)c1ccc(/C=C2\Cc3c(F)ccc(Br)c3C2=O)cc1` No
